Tested on: Lefty1
PROTOCOL SUMMARY: Lefty1 binders on small-molecule microarrays, primary screen, biochemical, small-molecule microarray, 635/667 nm fluorescence (AID 1139)
CONDITIONS: small-molecule microarray binding, fluorescence 635/667; higher = more signal
Readings of composite z-score for the listed compounds

[[record]]
compound = "C[N+](C)(C)CCCC[C@@H]1NC(=O)[C@H]2C[C@@H](C(=O)NCCCCCCNC(=O)CS)[C@@H](c3cccc(OCCO)c3)N2C1=O"
assayed_target = "Lefty1"
experimental_result = -1.36

[[record]]
compound = "COc1cc2c(cc1OC)CN(C(=O)[C@H]1[C@@H]3C(=O)O[C@@H](c4ccccc4)[C@@H](c4ccccc4)N3[C@@H](c3ccc(O)cc3)[C@]13C(=O)Nc1ccccc13)CC2"
assayed_target = "Lefty1"
experimental_result = 0.331

[[record]]
compound = "C=C(CCCC)/C(=C/C[C@H](OC(=O)c1ccncc1)c1ccccc1OCCO)c1cnc2ccccc2c1"
assayed_target = "Lefty1"
experimental_result = 1.14

[[record]]
compound = "COCCCNC(=O)[C@@H]1c2ccccc2C(=O)N(Cc2ccccc2Cl)[C@H]1c1ccc(CO)cc1"
assayed_target = "Lefty1"
experimental_result = 0.753

[[record]]
compound = "CC(C)NC(=O)[C@@]1(C)c2ccccc2C(=O)N(Cc2cc(C(F)(F)F)cc(C(F)(F)F)c2)[C@H]1c1ccc(CO)cc1"
assayed_target = "Lefty1"
experimental_result = -0.146


Dear colleague, I am looking for the recorded composite z-score of the following compound: `NC(=O)NCC#Cc1ccc2c(c1)[C@]1(C(=O)N2)[C@H](c2ccccc2OCCO)N2[C@H](c3ccccc3)[C@H](c3ccccc3)OC(=O)[C@H]2[C@@H]1C(=O)Nc1nc2ccccc2s1`
0.373

// next record `C=CC[C@@]1(C(=O)NCCN2CCOCC2)N=C(c2ccc(OCCCO)cc2)O[C@@H]1c1ccccc1N=[N+]=[N-]`
0.113

Also need C=CCC(OC(C)=O)[C@@H]1[C@@H](N(Cc2cc3ccccc3o2)C(=O)c2cccc3ccccc23)c2cc(OCCCO)ccc2N1C(=O)c1ccc(-c2ccccc2)cc1 (stereo not given in full) , thanks.
0.218

Could you do the same for C[C@H]1NC(=O)[C@@]23C(=O)N[C@@H](Cc4ccccc4)C2[C@H](C)[C@@]2(C)O[C@H]2C3/C=C/C/C=C\CNC(=O)[C@@H]2CCCN2C1=O (stereo not given in full) , please?
0.946

Same for `COC(=O)[C@@]1(Cc2ccc(F)cc2)[C@H]2c3cc(C(=O)N4CCCC4)n(CCCNc4ncc(C(F)(F)F)cc4Cl)c3C[C@H]2CN1C(=O)c1ccccc1`
-0.695

====

PROTOCOL SUMMARY: basal MM1S mitochondrial membrane potential changes, profiling panel, cell-based, JC-1 fluorescence, 24 h, 100 nL compound (AID 1170); also: test concentration not given here
CONDITIONS: higher = more signal
QUANTITY: z-score
No unit in the answer, only the number.

[[record]]
compound = "CCOC(=O)C[C@H]1[C@H](OC(=O)c2ccc(C(=O)c3ccccc3)cc2)[C@@H](NC(=O)c2ccccc2)c2cc(OCCCO)ccc2N1C(=O)Cc1ccc(OC)cc1"
experimental_result = -0.231

[[record]]
compound = "COc1ccc(CCNC(=O)[C@@]2(Sc3ccc(C)cc3)CC(=O)N(C3Cc4ccccc4C3)[C@@H]2c2ccc(CO)cc2I)cc1"
experimental_result = -0.565

[[record]]
compound = "C=C(COC)/C(=C/C[C@H](OC(C)=O)c1ccc(CO)o1)c1cc(C(=O)OC)ccc1OC"
experimental_result = 0.000891


# query: z-score of entry `C=CCNC(=O)[C@H]1[C@@H]2C(=O)O[C@@H](c3ccccc3)[C@@H](c3ccccc3)N2[C@@H](c2ccccc2OCCO)[C@]12C(=O)Nc1ccc(C#CCC(C(=O)OC)C(=O)OC)cc12`
-2.23

What would you report for `COC(=O)[C@@]1(Cc2ccc(OC)cc2)[C@@H]2C(=CC(=O)[C@H]2CC(=O)C(=O)N2CCCC2)CN1C(=O)c1ccccc1` ?
-1.69

# iterate: `COC(=O)c1c(CC[C@@H](CO)NC(=O)NCCn2cc(C3(O)CCCC3)nn2)oc(C(C)=O)c1C(=O)OC`
-0.152

Same read-out for `CO[C@H]1O[C@H](CO)[C@@H](OC(=O)Nc2ccccc2)[C@H](OC(=O)Nc2ccccc2)[C@@H]1OC(=O)Nc1ccccc1` ?
0.0816

What do we get for `CCCC=C(CCC)[C@@H](NC(=O)c1cccs1)c1ccc(C(F)(F)F)cc1` ?
-1.71

Consider next the compound CN1C(=O)C2C=CC(C(O)C3CC=CCC3)N(N(c3ccccc3)c3ccccc3)C2C1=O (centres undefined) in the same way.
-0.711

====

PROTOCOL SUMMARY: adipocyte viability effects, profiling panel, cell-based, 3T3-L1 adipocytes, calcein-AM fluorescence, 48 h, basal (AID 1163); also: test concentration not given here
CONDITIONS: 3T3-L1 adipocytes viability, higher = more signal
QUANTITY: z-score
When you answer, write just the number.

[[record]]
mol_smiles = "CN(C)C(=O)[C@@]1(CCS(=O)(=O)c2ccccc2)COC(c2ccc(OCCCO)cc2)=N1"
experimental_result = -0.0285

[[record]]
mol_smiles = "CC(C)=CCN[C@H](CO)c1ccccc1"
experimental_result = 1.93

[[record]]
mol_smiles = "C=C[C@@H](COC(=O)OC(C)(C)C)N(Cc1ccc(OC)cc1)S(=O)(=O)c1ccc(Br)cc1"
experimental_result = 0.332


Quick check: z-score of `CO[C@H]1O[C@H](CO)[C@@H](OC(=O)Nc2ccc(Oc3ccccc3)cc2)[C@H](OC(=O)Nc2ccc3c(c2)OCO3)[C@H]1OC(=O)Nc1ccc2c(c1)OCO2` ?
0.377

Do the same for `C=CCNC(=O)[C@H]1[C@@H]2C(=O)O[C@@H](c3ccccc3)[C@@H](c3ccccc3)N2[C@@H](c2ccccc2OCCO)[C@]12C(=O)Nc1ccc(C#CCCO)cc12` please
1.04

====

System: Wnt5a (protein binding on small-molecule microarray)
PROTOCOL SUMMARY: Wnt5a binders on small-molecule microarray, primary screen, biophysical, 635/667 nm fluorescence (AID 1142);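 also: fluorescence read at 667 nm with signal to noise per printed feature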
CONDITIONS: 635 nm fluorescence, higher = more signal
Reported composite z-score values for a set of molecules
# print the numeric value only

Study these solved cases before continuing.
[[record]]
molecule = "O=C1C[C@]2(c3ccc([N+](=O)[O-])cc3)C(=O)N(CC(F)(F)F)c3cc(CO)ccc3[C@H]2N1C1CCCCC1"
quantity = "composite z-score"
experimental_result = -0.446

[[record]]
molecule = "COC(=O)[C@@]1(Cc2ccc(F)cc2)[C@H]2c3cc(C(=O)N(C)C)n(Cc4cc(F)c(F)c(F)c4)c3C[C@H]2CN1C(=O)c1ccccc1"
quantity = "composite z-score"
experimental_result = 0.283

[[record]]
molecule = "CC(C)C(=C=CC[C@H](O)c1ccc(OCCO)cc1)CCO"
quantity = "composite z-score"
experimental_result = 0.803

[[record]]
molecule = "COc1cc2c(cc1OC)CN(C(=O)[C@H]1[C@@H]3C(=O)O[C@@H](c4ccccc4)[C@@H](c4ccccc4)N3[C@@H](c3ccc(O)cc3)[C@]13C(=O)Nc1ccc(C#CCCO)cc13)CC2"
quantity = "composite z-score"
experimental_result = -0.0279

[[record]]
molecule = "C=C(COC)C(=O)CC[C@@H](OC(C)=O)c1ccc(CO)o1"
quantity = "composite z-score"
experimental_result = 0.111

[[record]]
molecule = "C=CCN1C(=O)[C@@]2(Cc3ccccc31)N=C(c1ccc(OCCCO)cc1)O[C@H]2c1ccccc1"
quantity = "composite z-score"
experimental_result = 0.344

[[record]]
molecule = "COCCOC(=O)N1C(=O)[C@@]2(c3cc(C#CCNC(N)=O)ccc31)[C@H](C(=O)N1CCN(c3ncccn3)CC1)[C@H]1C(=O)O[C@H](c3ccccc3)[C@H](c3ccccc3)N1[C@@H]2c1ccc(OCCO)cc1"
quantity = "composite z-score"
experimental_result = 0.344

[[record]]
molecule = "CC1(C)[C@@H]2CC(C(O)C3C=CC4C(=O)N(Cc5ccccc5)C(=O)C4N3n3cnnc3)=C[C@H]1C2 (stereo partly specified)"
quantity = "composite z-score"
experimental_result = 0.253

[[record]]
molecule = "COCCOC(=O)N1C(=O)[C@@]2(c3cc(C#Cc4ccc(OC)cc4)ccc31)[C@H](c1ccc(O)cc1)N1[C@H](c3ccccc3)[C@H](c3ccccc3)OC(=O)[C@H]1[C@@H]2C(=O)N1CCc2cc(OC)c(OC)cc2C1"
quantity = "composite z-score"
experimental_result = 0.164

[[record]]
molecule = "Cc1ccc(S[C@]2(C(=O)NCCCN(C)C)CC(=O)N(Cc3cc(C(F)(F)F)cc(C(F)(F)F)c3)[C@@H]2c2ccc(CO)cc2I)cc1"
quantity = "composite z-score"
experimental_result = -0.116


Form field: reported composite z-score of N#Cc1ccc(NN2C(C(O)C(c3ccccc3)c3ccccc3)C=CC3C(=O)N(c4ccccc4)C(=O)C32)cc1 (stereo unspecified)
0.382

Input `[N-]=[N+]=NCc1ccccc1[C@@H]1OC(c2ccc(OCCCO)cc2)=N[C@]1(Cc1ccccc1)C(N)=O`
0.601

Try this molecule too: `CO[C@H]1O[C@H](CO)[C@@H](OC(=O)Nc2cccc(F)c2)[C@H](OC(=O)Nc2ccccc2)[C@@H]1OC(=O)Nc1ccccc1`
0.343

And then `CCCC=C(CCC)[C@@H](NC(=O)c1cccs1)c1ccc(C(F)(F)F)cc1` , what is it?
0.374

Would you kindly repeat that for COc1cc2c(cc1O)C(C1CC1)N(Cc1sc3ccccc3c1Cl)CC2 (stereo unspecified) ?
-0.207

Likewise for `CCCC[C@@H]1C[C@H]1[C@@H](NC(=O)c1cccs1)c1ccc(-c2ccccc2)cc1` ?
-0.0739
